- Target Entity: Type-1 angiotensin II receptor B (Rattus norvegicus)
- Sequence (P29089 whole entry): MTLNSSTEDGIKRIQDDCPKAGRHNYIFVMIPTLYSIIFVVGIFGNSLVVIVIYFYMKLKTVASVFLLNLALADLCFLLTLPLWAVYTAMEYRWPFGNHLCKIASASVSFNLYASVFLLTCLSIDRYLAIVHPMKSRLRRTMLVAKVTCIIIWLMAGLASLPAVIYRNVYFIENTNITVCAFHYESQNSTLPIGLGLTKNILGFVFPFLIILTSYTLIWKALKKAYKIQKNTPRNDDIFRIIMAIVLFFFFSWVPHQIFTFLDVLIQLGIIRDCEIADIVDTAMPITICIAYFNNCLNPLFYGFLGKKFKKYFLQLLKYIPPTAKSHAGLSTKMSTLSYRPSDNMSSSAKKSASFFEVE
- Method Summary: Inhibition of [125I]angiotensin-II binding to the angiotensin II receptor type 1 in rat uterine membranes
Measured Endpoint: pIC50
Give bare numbers, as −log10 of the molar value.

CCCCc1nnc(O)n1Cc1ccc(-c2ccccc2C(=O)O)cc1; 5.82
CCCCc1nn(C/C=C/c2ccccc2)c(=O)n1Cc1ccc(-c2ccccc2-c2nn[nH]n2)cc1; 6.54
CCCCc1nn(CC(=O)O)c(=O)n1Cc1ccc(-c2ccccc2-c2nn[nH]n2)cc1; 7.04
CCCCCn1nc(CCCC)n(Cc2ccc(-c3ccccc3-c3nn[nH]n3)cc2)c1=O; 8.25
CCCCc1nn(Cc2ccc3ccccc3c2)c(=O)n1Cc1ccc(-c2ccccc2-c2nn[nH]n2)cc1; 6.55
CCCCc1nn(CC(=O)C23C[C@H]4C[C@@H](C2)C[C@@H](C3)C4)c(=O)n1Cc1ccc(-c2ccccc2-c2nn[nH]n2)cc1; 7.60

Input: Return reported pIC50 for target or system Type-1 angiotensin II receptor B (Rattus norvegicus), item `CCCCc1nn(C(C)C)c(=O)n1Cc1ccc(-c2ccccc2-c2nnn[nH]2)cc1` .
Output: 7.70
